- System: T1, human TIM-3 extracellular domain protein with hFc tag (hTIM-3-hFc) (human, UniProt Q8TDQ0 22-200)
- T1 construct: not shown: human IgG Fc fragment (hFc) of the pCpC vector
- T1 sequence: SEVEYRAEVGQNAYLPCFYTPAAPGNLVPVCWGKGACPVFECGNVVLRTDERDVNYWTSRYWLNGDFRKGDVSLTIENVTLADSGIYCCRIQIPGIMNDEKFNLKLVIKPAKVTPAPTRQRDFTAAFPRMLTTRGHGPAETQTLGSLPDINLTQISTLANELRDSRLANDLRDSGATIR
- Assay Notes: ELISA, coated human TIM-3 ECD protein, 0.0001 nM antibody
Listed next: entries and their corresponding OD450.
Reply briefly: the number, and no unit.

Binder	Experimental Endpoint	Assay Value
134H3G6 fully human TIM-3 antibody (human IgG4, kappa) (antibody, V domains shown) VH: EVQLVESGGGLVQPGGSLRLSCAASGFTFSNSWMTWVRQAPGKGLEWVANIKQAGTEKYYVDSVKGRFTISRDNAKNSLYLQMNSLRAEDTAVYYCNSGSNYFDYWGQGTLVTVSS VL: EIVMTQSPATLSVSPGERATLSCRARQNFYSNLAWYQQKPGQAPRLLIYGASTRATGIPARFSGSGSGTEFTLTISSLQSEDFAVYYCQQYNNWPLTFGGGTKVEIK	OD450	0.1

q: Need OD450, item 39E5H1 fully human TIM-3 antibody (human IgG4, kappa) (antibody, V domains shown) VH: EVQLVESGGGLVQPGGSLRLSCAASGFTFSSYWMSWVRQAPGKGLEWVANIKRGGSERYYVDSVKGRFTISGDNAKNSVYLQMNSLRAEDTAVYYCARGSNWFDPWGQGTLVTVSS VL: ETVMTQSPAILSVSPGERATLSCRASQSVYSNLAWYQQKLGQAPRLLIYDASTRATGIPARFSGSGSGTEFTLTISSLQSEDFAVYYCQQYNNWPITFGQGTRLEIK
a: 0.08

q: How about 7A4F10 fully human TIM-3 antibody (human IgG4, kappa) (antibody, V domains shown) VH: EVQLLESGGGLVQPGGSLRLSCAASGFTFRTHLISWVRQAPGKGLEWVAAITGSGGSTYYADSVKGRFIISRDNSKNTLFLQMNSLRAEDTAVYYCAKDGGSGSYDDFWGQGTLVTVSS VL: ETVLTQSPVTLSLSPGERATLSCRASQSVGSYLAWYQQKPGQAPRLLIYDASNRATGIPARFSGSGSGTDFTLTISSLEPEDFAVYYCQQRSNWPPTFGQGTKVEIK ?
a: 0.08

q: How about 57F4E5 fully human TIM-3 antibody (human IgG4, kappa) (antibody, V domains shown) VH: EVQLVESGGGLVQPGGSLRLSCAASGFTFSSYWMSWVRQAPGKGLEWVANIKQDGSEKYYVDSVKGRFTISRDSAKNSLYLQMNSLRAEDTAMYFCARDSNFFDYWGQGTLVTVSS VL: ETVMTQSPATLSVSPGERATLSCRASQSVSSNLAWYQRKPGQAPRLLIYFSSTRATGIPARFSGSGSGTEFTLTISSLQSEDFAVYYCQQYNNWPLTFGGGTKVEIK ?
a: 0.08
